# protocol.notes: melting temperature; fluorescence melt of hairpins on a sequencing array, two-state fit, raised by 9.35 °C to match UV melts
# settings: sodium 0.088 M
I would appreciate it if you labelled entries MET when Tm is 50 °C or higher, otherwise NOT MET.

sequence	class
GGCGCCGAAAGGCGGGCC ((((((....)))..)))	MET
GGAAGGGCGAAAGCCTCC (((..(((....))))))	NOT MET
GTATAGCGAAAGCTCTAC (((.(((....))).)))	NOT MET
GCGTTTCGAAAGAATCGC (((.(((....))).)))	MET
GATCGGGTAGCCGATC ((((((....))))))	MET
GGTATCGAAAGATCCACC ((((((....)))..)))	NOT MET
GTAACACGAAAGTGATAC (((.(((....))).)))	NOT MET
GTAGACGAAAGTCCTAC ((((((....))).)))	NOT MET
GATCGTGAAACGATC ((((((...))))))	MET
GATCTATTTTTAGATC ((((((....))))))	NOT MET
GACCAAACGAAAGTTGTC (((..(((....))))))	NOT MET
